Measured pIC50 accompanies every entry in the list below.
# Tested on: PC-3
# Experiment description: Cytotoxic activity against human PC3 cells assessed as reduction in cell viability after 72 hrs by SRB assay
# Type: functional, cell-based
# Reported conditions: PC-3, 72 h
pIC50: −log10 of the molar value.
Measured property: pIC50

Molecule	Target entity	Measured
COc1c(C(C)C)ccc2c1CC[C@@]1(O)C3=C(C(=O)OC3)[C@@H](O)C[C@]21C	PC-3	< 4.00
C=C1[C@H](O)CC[C@]2(C)c3ccc(C(C)C)c(OC)c3CC[C@@H]12	PC-3	< 4.00
COc1c(C(C)C)ccc2c1CC[C@H]1[C@@H](CO)[C@H](O)CC[C@]21C	PC-3	< 4.00
COC(=O)[C@]1(C)CCC[C@@]2(C)[C@H]1CC=C1[C@@H]2CC[C@](O)(C(C)C)[C@H]1O	PC-3	< 4.00
COc1cccc2c1CC[C@H]1[C@@H](CO)[C@H](O[Si](C)(C)C(C)(C)C)CC[C@]21C	PC-3	< 4.00
COC(=O)[C@]1(C)CCC[C@]2(C)c3ccc(C(C)C)c([N+](=O)[O-])c3CC[C@@H]12	PC-3	< 4.00
COc1cccc2c1CC[C@H]1C3=C(CC[C@]21C)C(=O)OC3	PC-3	< 4.00
COc1c(C(C)C)ccc2c1CC[C@H]1[C@H]3COC(=O)[C@H]3CC[C@]21C	PC-3	< 4.00
COC(=O)[C@]1(C)CCC[C@]2(C)c3ccc(C(C)C)c(O)c3CC[C@@H]12	PC-3	4.65
C=C1[C@@H]2CC(=O)c3c(ccc(C(C)C)c3OC)[C@@]2(C)CC[C@@]1(O)CO	PC-3	4.57
COc1ccc(COC[C@H]2[C@H](O)CC[C@]3(C)c4cccc(OC)c4CC[C@@H]23)cc1	PC-3	5.47
CC(C)c1ccc2c(c1O)C(=O)C[C@H]1C3=C(CC[C@]21CO)C(=O)OC3	PC-3	4.04
CC(C)c1ccc2c(c1O)CC[C@H]1C3=C(CC[C@]21C)C(=O)OC3 [TRIPTOPHENOLIDE]	PC-3	< 4.00
COC(=O)[C@]1(C)CCC[C@]2(C)c3ccc(C(C)C)c(OC)c3[C@H](O)C[C@@H]12	PC-3	4.25
C[C@]12CC=C3C(=O)OC[C@@H]3[C@@H]1CCc1ccccc12	PC-3	< 4.00
COc1c(C(C)C)ccc2c1CC[C@H]1[C@@H](O)CCC[C@]21CO[N+](=O)[O-]	PC-3	< 4.00
COC(=O)[C@]1(C)CCC[C@@]2(C)[C@H]1CC=C1C=C(C(C)C)CC[C@@H]12 [METHYL ABIETATE]	PC-3	4.10
CC(C)c1ccc2c(c1O)C(=O)C[C@H]1C3=C(CC[C@]21C)C(=O)OC3	PC-3	4.24
CCOCC[C@]12CCC3=C(COC3=O)[C@@H]1CCc1c2ccc(C(C)C)c1OC	PC-3	< 4.00
COc1c(C(C)C)ccc2c1CC[C@H]1[C@@H]3COC(=O)[C@@H]3CC[C@]21C	PC-3	< 4.00
C=C1[C@H](O[Si](C)(C)C(C)(C)C)CC[C@]2(C)c3ccccc3CC[C@@H]12	PC-3	< 4.00
C=C1CCC[C@]2(C)c3ccc(C(C)C)c(OC)c3CC[C@@H]12	PC-3	< 4.00
C=C1C(=C(SC)SC)CC[C@]2(COCOCC)c3ccc(C(C)C)c(OC)c3CC[C@@H]12	PC-3	4.71
O=c1[nH]cc(F)c(=O)[nH]1	PC-3	4.82

* * *

Measured pIC50 accompanies every entry in the list below.
# Tested on: SK-OV-3
# Experiment description: Cytotoxic activity against human SKOV3 cells assessed as reduction in cell viability after 72 hrs by SRB assay
# Assay type: functional, cell-based
# Reported conditions: SK-OV-3, 72 h
pIC50: −log10 of the molar value.
Measured property: pIC50

COc1c(C(C)C)ccc2c1CC[C@@]1(O)C3=C(CC[C@]21C)C(=O)OC3 < 4.00
C[C@]12CC=C3C(=O)OC[C@@H]3[C@@H]1CCc1ccccc12 < 4.00
C=C1CCC[C@]2(C)c3ccc(C(C)C)c(OC)c3CC[C@@H]12 < 4.00
COc1c(C(C)C)ccc2c1CC[C@H]1[C@H]3COC(=O)[C@H]3CC[C@]21C < 4.00

Data provenance: ChEMBL document CHEMBL4000202
